target: Bombesin receptor subtype-3 (Mus musculus) (UniProt O54798); assay: Agonist activity at mouse BRS3 by functional assay relative to control
Sequence (O54798 whole entry): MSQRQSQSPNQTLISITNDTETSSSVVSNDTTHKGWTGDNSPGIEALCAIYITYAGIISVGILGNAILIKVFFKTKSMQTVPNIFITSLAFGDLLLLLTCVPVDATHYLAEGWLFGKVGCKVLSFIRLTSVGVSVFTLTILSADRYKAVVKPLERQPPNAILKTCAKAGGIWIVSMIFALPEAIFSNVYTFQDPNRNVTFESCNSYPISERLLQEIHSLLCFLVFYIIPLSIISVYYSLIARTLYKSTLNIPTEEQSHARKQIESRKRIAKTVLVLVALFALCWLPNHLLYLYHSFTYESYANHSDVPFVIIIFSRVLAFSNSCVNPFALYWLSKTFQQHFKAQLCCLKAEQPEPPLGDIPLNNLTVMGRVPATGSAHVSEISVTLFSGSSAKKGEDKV
compounds and their reported Activity
Write the value in % as a bare number.

CC(C)(C)c1cc(NS(=O)(=O)c2cnccc2N[C@@H]2C[C@H]3CC[C@@H]2C3)[nH]n1 (racemic) = 113
CC(C)(C)NC(=O)NS(=O)(=O)c1cnccc1NN1CCCC1 = 5
CC(C)(C)NC(=O)NS(=O)(=O)c1cnccc1N[C@H]1CN2CCC1CC2 = 0

Continue with the next compound.
Exercise: Sample CC(C)(C)CC(C)(C)NC(=O)NS(=O)(=O)c1cnccc1N[C@@H]1C[C@H]2CC[C@@H]1C2 (racemic) — what was its Activity?
Solution: 102
